testedTarget: recombinant human ERα (Homo sapiens)
Construct: purchased PanVera Corporation (Madison, Wis.); host or cells: baculovirus-mediated expression system
Sequence (P03372 1-595): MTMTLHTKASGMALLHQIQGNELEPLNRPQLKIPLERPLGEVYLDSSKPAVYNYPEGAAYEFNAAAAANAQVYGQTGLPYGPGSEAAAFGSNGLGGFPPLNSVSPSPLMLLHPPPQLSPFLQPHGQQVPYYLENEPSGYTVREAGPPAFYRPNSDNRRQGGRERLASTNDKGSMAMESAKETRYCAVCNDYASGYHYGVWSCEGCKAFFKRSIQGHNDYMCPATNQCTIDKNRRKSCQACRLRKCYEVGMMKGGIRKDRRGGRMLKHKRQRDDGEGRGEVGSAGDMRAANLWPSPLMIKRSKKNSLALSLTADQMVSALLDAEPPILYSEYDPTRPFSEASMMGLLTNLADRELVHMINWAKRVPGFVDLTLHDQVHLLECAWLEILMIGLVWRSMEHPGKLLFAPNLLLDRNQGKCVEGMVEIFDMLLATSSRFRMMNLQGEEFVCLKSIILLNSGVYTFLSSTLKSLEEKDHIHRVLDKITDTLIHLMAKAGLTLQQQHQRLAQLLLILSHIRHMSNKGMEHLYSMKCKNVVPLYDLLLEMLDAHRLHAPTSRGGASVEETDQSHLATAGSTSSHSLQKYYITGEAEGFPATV
testMethodNotes: ERα binding assay: competition of [3H]E2 binding by competing estrogens
conditionSet: read-out: ERα IC50
For each of the molecules below, state its IC50.
Answers are plain numbers, in nM.

molecule: CC12CCC3c4ccc(O)cc4C(=O)CC3C1CC(O)C2O (stereo not shown)
IC50 [nM]: 44.7
//
molecule: CC12CCC3c4ccc(O)c(O)c4CCC3C1CCC2=O (stereo not shown) [4-OH-E1, 4-Hydroxyestrone]
IC50 [nM]: 708

Lookup result for "C#C[C@]1(O)CC[C@H]2[C@@H]3CCc4cc(O)ccc4[C@H]3[C@@H](OC)C[C@@]21C" ; measured IC50: 31.6
